From: ChEMBL document CHEMBL1146066

# Assayed System: GABA A receptor alpha-1/beta-2/gamma-2 (Homo sapiens)
# Protocol Text: Displacement of [3H]Flumazenil from human GABA-Aalpha1 receptor plus beta-2-gamma-2 expressed in HEK293 cells
Property: Ki (nM)

(I) CCOC(=O)c1cnc2ccc(Cc3ccccc3)cc2c1O
(II) CCc1ccc2ncc(C(=O)OCCC(C)C)c(O)c2c1
(III) CCOC(=O)c1cnc2ccc(Br)cc2c1O
-- ask Which order do the items above take when sorted by Ki from high to low? Give the labels in the order requested.
-- reply III, II, I

----------
# Assayed System: GABA-A receptor; anion channel
# Protocol Text: Displacement of [3H]flumazenil from GABA-A receptor in rat cortical membranes
Property: Ki (nM)

Use the examples below as a reference point.
>>> recorded_result("CCCNC(=O)c1cnc2ccc(CC)cc2c1O")
0.26
>>> recorded_result("CCCCNC(=O)c1cnc2ccc(CC)cc2c1O")
0.54
>>> recorded_result("CCCOC(=O)c1cnc2ccc(CC)cc2c1O")
1.8

(I) CCCCOC(=O)c1cnc2ccccc2c1O
(II) CCCc1ccc2ncc(C(=O)OCC)c(O)c2c1
-- ask Please compare: I and II . Report which one has the smaller Ki value. # answer = label of selected item
-- reply II

(1) CCOC(=O)c1c(C)nc2ccc(Br)cc2c1O
(2) CCc1ccc2ncc(C(=O)O)c(O)c2c1
(3) CCOC(=O)c1cnc2ccc(CC)cc2c1O
(4) CCCCCOC(=O)c1cnc2ccc(CC)cc2c1O
(5) CCOC(=O)c1cnc2ccc(Cc3ccccc3)cc2c1O
-- ask Hey, can you sort those compounds up there by Ki, smallest first? Give the labels in the order requested.
-- reply 5, 3, 4, 2, 1
(5: 1.4 nM, 3: 20 nM, 4: 35 nM, 2: 208 nM, 1: 4200 nM)

(a) CCc1ccc2ncc(C(=O)OC(C)CC(C)C)c(O)c2c1 (stereo not drawn)
(b) CCc1ccc2ncc(C(=O)OCC(CC)CC)c(O)c2c1
-- ask Name the one with the greater Ki value, either a or b as given. # answer = label of selected item
-- reply a
(a: 295 nM, b: 92 nM)
